assay: Measurement of logP values by HPLC on reversed phase columns (EEC directive 79/831 Annex V.A8); assay type: physicochemical; conditions: reversed phase HPLC column; method [b]: LC-MS at pH 2.7 with 0.1% formic acid in water and acetonitrile, linear gradient 10% to 95% acetonitrile; read-out: logp
measured-parameter: chromatographic logP
Lab note: record the figure alone, no unit after it.

{"compound": "CCCCCCNc1cccc(CON=C(c2ccccc2)c2nsnc2C)n1 [Example 31]", "measured-parameter": "chromatographic logP", "measured": 3.11}

Q: # chromatographic logP lookup, item CC#CCOC(=O)Nc1cccc(CON=C(c2ccccc2)c2nsnc2C)n1 [Example 25]
Ans: 4.28

Q: Further, for CCCCC#Cc1nc(CON=C(c2cccc(Cl)c2)c2nnsc2C)cs1 [Example 6] ?
Ans: 5.68

Q: Then CCCCCCNc1cccc(CON=C(c2cccc(F)c2)c2nnsc2C)n1 [Example 1] ?
Ans: 3.06

Q: Try the compound Cc1nsnc1C(=NOCc1cccc(NC(=O)OC(C)(C)C)n1)c1ccccc1 [Example 30]
Ans: 4.97

---

assay: Measurement of logP values by HPLC on reversed phase columns (EEC directive 79/831 Annex V.A8); assay type: physicochemical; conditions: method [b]: LC-MS at pH 2.7 with 0.1% formic acid in water and acetonitrile, linear gradient 10% to 95% acetonitrile
Parameter: logp. Scope: all listed entries.

Below, 5 compounds whose answers are already recorded.
{"record-smiles": "CCCCCCC(=O)Nc1nc(CON=C(c2ccccc2)c2ccnn2C)cs1", "measured-parameter": "logp", "measured": "4.18^[b]"}
{"record-smiles": "Cc1nsnc1C(=NOCc1cccc(NC(=O)OC2CCCC2)n1)c1ccccc1", "measured-parameter": "logp", "measured": "5.11^[b]"}
{"record-smiles": "CCCCC#Cc1nc(CON=C(c2cccc(F)c2)c2nnsc2C)cs1", "measured-parameter": "logp", "measured": "5.25^[b]"}
{"record-smiles": "CCCCCCNc1cccc(CON=C(c2cccc(F)c2)c2nonc2C)n1", "measured-parameter": "logp", "measured": "3.57^[b]"}
{"record-smiles": "CCCCCC(=O)Nc1nc(CON=C(c2ccccc2)c2ccnn2C)cs1", "measured-parameter": "logp", "measured": "3.8^[b]"}

Q: Find the recorded logp belonging to `Cn1nccc1C(=NOCc1csc(NC(=O)COc2ccccc2)n1)c1ccccc1` and report it.
Ans: 3.55^[b]

Q: Request: `CCNc1cccc(CON=C(c2ccccc2)c2nsnc2C)n1`
Ans: 1.89^[b]

Q: Then `Cc1nsnc1C(=NOCc1cccc(NCCCc2ccccc2)n1)c1ccccc1` ?
Ans: 2.98^[b]

Q: Proceed to `CCCCC(=O)Nc1nc(CON=C(c2ccccc2)c2ccnn2C)cs1`
Ans: 3.39^[b]

---

Below, each entry is listed alongside its reported logp.
assay: Measurement of logP values by HPLC on reversed phase columns (EEC directive 79/831 Annex V.A8); type: physicochemical; settings: method [a]: pH 2.3 with 0.1% phosphoric acid and acetonitrile as eluent

Past entries and their recorded results:
{"molecule": "Nc1ccnc(CON=C(c2ccccc2)c2nsnc2C(F)(F)F)n1 [Example 8]", "logp": "1.75^[a]"}
{"molecule": "Nc1nc(CON=C(c2ccccc2)c2nsnc2C(F)(F)F)cs1 [Example 10]", "logp": "2.26^[a]"}
{"molecule": "O=C(Cc1ccccc1)Nc1ccnc(CON=C(c2ccccc2)c2nsnc2C(F)(F)F)n1 [Example 15]", "logp": "4.09^[a]"}
{"molecule": "CC(C)(C)C(=O)Nc1ccnc(CON=C(c2ccccc2)c2nsnc2C(F)(F)F)n1 [Example 16]", "logp": "4.24^[a]"}
{"molecule": "CCCCCOC(=O)Nc1ccnc(CON=C(c2ccccc2)c2nsnc2C(F)(F)F)n1 [Example 9]", "logp": "4.92^[a]"}

Q: Bench note: what logp did CC(C)CC(=O)Nc1ccnc(CON=C(c2ccccc2)c2nsnc2C(F)(F)F)n1 [Example 14] show?
Ans: 4.09^[a]

Q: Can you handle CCCCCC(=O)Nc1ccnc(CON=C(c2ccccc2)c2nsnc2C(F)(F)F)n1 [Example 17] next?
Ans: 4.54^[a]

Q: Moving on to O=C1c2ccccc2C(=O)N1c1cccc(CON=C(c2ccccc2)c2nsnc2C(F)(F)F)n1 [Example 18]
Ans: 4.31^[a]

Q: Moving on to O=C(Nc1ccnc(CON=C(c2ccccc2)c2nsnc2C(F)(F)F)n1)c1ccccc1 [Example 11]
Ans: 4.14^[a]

Q: And for COCCOCC(=O)Nc1ccnc(CON=C(c2ccccc2)c2nsnc2C(F)(F)F)n1 [Example 13] ?
Ans: 3.46^[a]

Q: Now the molecule O=C(CCCc1ccccc1)Nc1ccnc(CON=C(c2ccccc2)c2nsnc2C(F)(F)F)n1 [Example 12]
Ans: 4.65^[a]

Q: How about CCCCCOC(=O)Nc1cccc(CON=C(c2ccccc2)c2nsnc2C(F)(F)F)n1 [Example 19] ?
Ans: 5.68^[a]

---

// reported logp per item
experiment: Measurement of logP values by HPLC on reversed phase columns (EEC directive 79/831 Annex V.A8); assay type: physicochemical; details: method [b]: LC-MS at pH 2.7 with 0.1% formic acid in water and acetonitrile, linear gradient 10% to 95% acetonitrile

{"compound": "CCCCC#Cc1nc(CON=C(c2ccc(Cl)cc2)c2nnsc2C)cs1", "logp": "5.68^[b]"}
{"compound": "Cc1nsnc1C(=NOCc1cccc(NC(=O)OCc2ccccc2)n1)c1ccccc1", "logp": "4.92^[b]"}
{"compound": "CCCCC#Cc1nc(CON=C(c2ccccc2)c2nsnc2C)cs1", "logp": "5.72^[b]"}
{"compound": "Cn1nccc1C(=NOCc1csc(NC(=O)Cc2ccccc2)n1)c1ccccc1", "logp": "3.42^[b]"}
{"compound": "CCCCNc1cccc(CON=C(c2ccccc2)c2nsnc2C)n1", "logp": "2.41^[b]"}

Q: Please give the measured logp for this compound: CCCCC(CC)COC(=O)Nc1cccc(CON=C(c2ccccc2)c2nsnc2C)n1 (stereo not shown)
Ans: 6.76^[b]

Q: // same read-out, input: `CCCCCCCOC(=O)Nc1cccc(CON=C(c2ccccc2)c2nsnc2C)n1`
Ans: 6.42^[b]

Q: And the next one, `CCCCC#Cc1nc(CON=C(c2ccccc2)c2nonc2C)cs1` ?
Ans: 5.51^[b]

Q: // same read-out, input: `Cc1nsnc1C(=NOCc1cccc(NC(=O)OCCCCC(F)(F)F)n1)c1ccccc1`
Ans: 4.97^[b]

Q: Let us now turn to `CCCCC#Cc1nc(CON=C(c2ccc(F)cc2)c2nnsc2C)cs1`
Ans: 5.19^[b]

Q: Another compound to check: `CCCCC#Cc1nc(CON=C(c2ccc(F)cc2)c2nonc2C)cs1`
Ans: 5.99^[b]

Q: Also `CCCCCCNc1cccc(CON=C(c2ccccc2)c2nonc2C)n1` , if possible.
Ans: 3.31^[b]

Q: Similarly, `CCCCCOC(=O)Nc1cccc(CON=C(c2ccccc2)c2nsnc2C)n1` ?
Ans: 5.5^[b]

Q: Continue with `CCCNc1cccc(CON=C(c2ccccc2)c2nsnc2C)n1`
Ans: 2.11^[b]

Q: Field entry: `Cn1nccc1C(=NOCc1csc(NC(=O)C(C)(C)C)n1)c1ccccc1`
Ans: 3.46^[b]

Q: Further, for `Cc1nsnc1C(=NOCc1cccc(N(C(=O)OC(C)(C)C)C(=O)OC(C)(C)C)n1)c1ccccc1` ?
Ans: 5.47^[b]

---

assay: Measurement of logP values by HPLC on reversed phase columns (EEC directive 79/831 Annex V.A8); assay type: physicochemical; details: method [b]: LC-MS at pH 2.7 with 0.1% formic acid in water and acetonitrile, linear gradient 10% to 95% acetonitrile
Listing of recorded logp by entry.

{"record-smiles": "Cn1nccc1C(=NOCc1csc(NC(=O)OCCCCCl)n1)c1ccccc1", "logp": "3.65^[b]"}
{"record-smiles": "CCOC(=O)Nc1nc(CON=C(c2ccccc2)c2ccnn2C)cs1", "logp": "3^[b]"}

Now turn to the next molecule.
Q: // lookup logp for `CCCCCCOC(=O)Nc1nc(CON=C(c2ccccc2)c2ccnn2C)cs1`
Ans: 4.59^[b]
